Origin of values: patent US12319655B2

We begin with a simple list: items and their reported pIC50.
Tested on: H2405 cells
Protocol Text: H2405 Cell Proliferation Assay (1)
Format: cell-based
Conditions: Homo sapiens, NCI-H2405
pIC50: −log10 of the molar value.

# example entries with known answers
If you can, please state the reported pIC50 value of CNC(=O)c1cc(-c2cc(-c3cc(NC(=O)c4ccnc(C(C)(C)F)c4)ccc3C)cnc2C)ccn1 [Example 371] .
6.30 to 7.00

If you can, please state the reported pIC50 value of Cc1ccc(NC(=O)c2ccnc(C3(C#N)CC3)c2)cc1-c1ccnc(-c2ccnc(NC(=O)C3CC3)c2)n1 [Example 180] .
≥ 7.00

If you can, please state the reported pIC50 value of CNC(=O)c1cc(-c2cncc(-c3cc(NC(=O)c4ccnc(C5(C#N)CC5)c4)ccc3C)c2)ncn1 [Example 393] .
6.30 to 7.00

If you can, please state the reported pIC50 value of Cc1cc(F)c(NC(=O)c2ccnc(C3CC3)c2)cc1-c1cncc(-c2cc(NC(=O)C3CC3)ncn2)c1 [Example 398] .
≥ 7.00

If you can, please state the reported pIC50 value of Cc1cc(-c2cc(NC(=O)C3CC3)ncn2)cc(-c2cc(NC(=O)c3ccnc(C(C)(C)C#N)c3)ccc2C)c1 [Example 212] .
≥ 7.00

If you can, please state the reported pIC50 value of Cc1ccc(NC(=O)c2cnn(C3CC3)c2)cc1-c1cncc(-c2cc(NC(=O)C3CC3)ncn2)c1 [Example 430] .
6.30 to 7.00

If you can, please state the reported pIC50 value of CC(=O)Nc1cc(-c2cncc(-c3cc(NC(=O)c4cc(C(F)(F)F)ccn4)ccc3C)n2)ccn1 [Example 124] .
≥ 7.00

If you can, please state the reported pIC50 value of Cc1ncc(NC(=O)c2ccnc(C(C)(C)C#N)c2)cc1-c1cc(-c2cc(NC(=O)C3CC3)ncn2)cc(C2CC2)c1 [Example 218] .
6.30 to 7.00

***
If you can, please state the reported pIC50 value of CNC(=O)c1cc(-c2cccc(-c3cc(NC(=O)c4ccnc(C(C)(C)C#N)c4)ccc3C)c2)cnn1 [Example 191] .
≥ 7.00

###

Tested Target: A-Raf kinase (SEQ. ID No: 1) (Homo sapiens (Human), UniProt P10398, Y301D/Y302D)
Sequence (P10398 other isoform, or with tags, fused parts or gaps Y301D (already in the parent)/Y302D (already in the parent)): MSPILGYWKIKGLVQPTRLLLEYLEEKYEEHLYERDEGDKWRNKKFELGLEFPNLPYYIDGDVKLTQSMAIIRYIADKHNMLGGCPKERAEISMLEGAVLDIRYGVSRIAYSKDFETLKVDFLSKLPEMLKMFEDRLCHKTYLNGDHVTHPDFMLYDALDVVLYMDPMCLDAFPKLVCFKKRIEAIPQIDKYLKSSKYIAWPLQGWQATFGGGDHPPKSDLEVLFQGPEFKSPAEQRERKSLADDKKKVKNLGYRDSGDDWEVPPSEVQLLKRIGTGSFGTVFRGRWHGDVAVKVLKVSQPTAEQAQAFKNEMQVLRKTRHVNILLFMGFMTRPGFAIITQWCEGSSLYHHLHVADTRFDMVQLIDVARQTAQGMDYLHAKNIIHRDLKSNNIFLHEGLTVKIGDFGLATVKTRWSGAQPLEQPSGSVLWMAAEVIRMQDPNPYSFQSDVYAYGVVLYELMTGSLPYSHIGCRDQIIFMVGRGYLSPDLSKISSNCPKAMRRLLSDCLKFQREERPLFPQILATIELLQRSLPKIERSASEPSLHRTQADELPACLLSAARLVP
Protocol Text: Biochemical Assay for A-Raf (1)
Conditions: Table J, assay version (1); read-out: ARAF (1) IC50
pIC50: −log10 of the molar value.
We begin with a simple list: items and their reported pIC50.

# example entries with known answers
If you can, please state the reported pIC50 value of Cc1ccc(NC(=O)c2cc(CN(C)C)cc(C(F)(F)F)c2)cc1-c1cccc(-c2cc(NC(=O)C3CC3)ncn2)c1 .
5.00 to 6.00

If you can, please state the reported pIC50 value of COCCNc1cc(-c2cncc(-c3cc(NC(=O)c4ccnc(C(F)(F)F)c4)ccc3C)n2)ccn1 .
5.00 to 6.00

***
If you can, please state the reported pIC50 value of Cc1cc(F)c(NC(=O)c2cnnc(C3CC3)c2)cc1-c1ccnc(-c2ccnc(NC(=O)C3CC3)c2)n1 .
5.00 to 6.00

###

Tested Target: A-Raf kinase (SEQ. ID No: 1) (Homo sapiens (Human), UniProt P10398, Y301D/Y302D)
Protocol Text: Biochemical Assay for A-Raf (1)
Conditions: Table J, biochemical assay (1); read-out: ARAF (1)
pIC50: −log10 of the molar value.
Property: pIC50

# example entries with known answers
If you can, please state the reported pIC50 value of CNC(=O)c1cc(-c2cc(-c3cc(NC(=O)c4ccnc(C(C)(C)F)c4)ccc3C)nc(C)n2)ccn1 .
5.00 to 6.00

If you can, please state the reported pIC50 value of COC(=O)Nc1cc(-c2cc(-c3cc(NC(=O)c4ccnc(C(C)(C)F)c4)c(F)cc3C)cc(C)n2)ccn1 .
5.00 to 6.00

If you can, please state the reported pIC50 value of Cc1ccc(NC(=O)c2cc(C3CC3)on2)cc1-c1cncc(-c2cc(NC(=O)C3CC3)ncn2)c1 .
5.00 to 6.00

If you can, please state the reported pIC50 value of Cc1ncc(NC(=O)c2ccnc(C(C)(C)F)c2)cc1-c1cncc(-c2cc(NC(=O)C3CC3)ncn2)c1 .
6.00 to 6.30

If you can, please state the reported pIC50 value of COC(=O)Nc1cc(-c2nccc(-c3cc(NC(=O)c4ccnc(C(C)(C)F)c4)ccc3C)n2)ccn1 .
5.00 to 6.00

If you can, please state the reported pIC50 value of Cc1ccc(NC(=O)Cn2cc(C(C)C)nn2)cc1-c1cncc(-c2cc(N)ncn2)c1 .
5.00 to 6.00

***
If you can, please state the reported pIC50 value of COC(=O)Nc1cc(-c2cncc(-c3cc(NC(=O)c4ccnc(C(C)(C)F)c4)c(F)cc3C)c2)ccn1 .
5.00 to 6.00

If you can, please state the reported pIC50 value of Cc1cc(F)c(NC(=O)c2ccnc(C(C)(C)C#N)c2)cc1-c1cncc(-c2cc(NC(=O)C3CC3)ncn2)c1 .
6.00 to 6.30

If you can, please state the reported pIC50 value of COC(=O)Nc1cc(-c2cnnc(-c3cc(NC(=O)c4cn(C(C)C)nn4)ccc3C)c2)ccn1 .
5.00 to 6.00

If you can, please state the reported pIC50 value of Cc1ccc(NC(=O)c2ccnc(C3(C#N)CC3)c2)cc1-c1cncc(-c2cc(NC(=O)C3CC3)ncn2)c1 .
6.00 to 6.30

If you can, please state the reported pIC50 value of COC(=O)Nc1cc(-c2cncc(-c3cc(NC(=O)c4ccnc(C(C)(C)F)c4)ccc3C)c2)ccn1 .
5.00 to 6.00

If you can, please state the reported pIC50 value of Cc1ccc(NC(=O)c2ccnc(C(F)F)c2)cc1-c1cncc(-c2cc(NC(=O)C3CC3)ncn2)c1 .
6.30 to 7.00

If you can, please state the reported pIC50 value of Cc1ccc(NC(=O)c2ccnc(C(C)(C)F)c2)cc1-c1cncc(-c2ccnc(NC(=O)C3CC3)c2)c1 .
6.30 to 7.00

If you can, please state the reported pIC50 value of Cc1ncc(NC(=O)c2ccnc(C(C)(C)F)c2)cc1-c1cncc(-c2ccnc(NC(=O)C3CC3)c2)c1 .
5.00 to 6.00
